Data provenance: the supplement of paper PMC11061612

- System: EM-2 (Chronic Myelogenous Leukemia);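 also: after 72 h of two-drug dosing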
- assay_name: Bliss excess, mean over the matrix (fraction); higher = more synergy
assay_metric: Bliss excess
Just the number, please.

Task item: Need Bliss excess of COc1nnc2ccc(N3CCC(c4ccc(OCCN5CCN(C)C(=O)[C@H]5C)cc4)CC3)nn12 [AZD5153] + C[C@@H]1COCCN1C2=NC(=NC(=C2)C3(CC3)[S@](=N)(=O)C)C4=C5C=CNC5=NC=C4 [AZD6738] (first compound max 1 µM, 7x7, partner max 10 µM) , thanks.
Reply: 0.039

Task item: Need Bliss excess of COc1cccc(OCCCN)c1-c1cc(Nc2cnc(C#N)cn2)n[nH]1 [Prexasertib] + Cc1cc2ncnn2cc1Nc1ncc2c(n1)n(C1CCOCC1)c(=O)n2C [AZD7648] (first compound max 1 µM, 7x7, partner max 10 µM) , thanks.
Reply: -0.0274

Task item: Need Bliss excess of CC1(C)CCC(CN2CCN(c3ccc(C(=O)NS(=O)(=O)c4ccc(NCC5CCOCC5)c([N+](=O)[O-])c4)c(Oc4cnc5[nH]ccc5c4)c3)CC2)=C(c2ccc(Cl)cc2)C1 [Venetoclax] + C[C@@H]1COCCN1C2=NC(=NC(=C2)C3(CC3)[S@](=N)(=O)C)C4=C5C=CNC5=NC=C4 [AZD6738] (first compound max 1 µM, 7x7, partner max 10 µM) , thanks.
Reply: -0.0272

Task item: Need Bliss excess of NC1(C(=O)N[C@@H](CCO)c2ccc(Cl)cc2)CCN(c2ncnc3[nH]ccc23)CC1 [Capivasertib] + CC(C)n1c(=O)n(C)c2cnc3cc(F)c(-c4ccc(OCCCN5CCCCC5)nc4)cc3c21 [AZD1390] (first compound max 10 µM, 7x7, partner max 0.3 µM) , thanks.
Reply: -0.0446

Task item: Need Bliss excess of CN(CCO)CC[C@H](CSc1ccccc1)Nc1ccc(S(=O)(=O)NC(=O)c2ccc(N3CCC([C@@H](O)c4ccccc4-c4ccc(Cl)cc4)CC3)cc2)cc1S(=O)(=O)C(F)(F)F [AZD4320] + CCN(CCO)CCCOc1ccc2c(Nc3cc(CC(=O)Nc4cccc(F)c4)[nH]n3)ncnc2c1 [AZD2811] (first compound max 1 µM, 7x7, partner max 1 µM) , thanks.
Reply: -0.0327

Task item: Need Bliss excess of Cc1cc2ncnn2cc1Nc1ncc2c(n1)n(C1CCOCC1)c(=O)n2C [AZD7648] + CCN(CCO)CCCOc1ccc2c(Nc3cc(CC(=O)Nc4cccc(F)c4)[nH]n3)ncnc2c1 [AZD2811] (first compound max 10 µM, 7x7, partner max 1 µM) , thanks.
Reply: -0.073

Task item: Need Bliss excess of CCN(CCO)CCCOc1ccc2c(Nc3cc(CC(=O)Nc4cccc(F)c4)[nH]n3)ncnc2c1 [AZD2811] + C[C@@H]1COCCN1C2=NC(=NC(=C2)C3(CC3)[S@](=N)(=O)C)C4=C5C=CNC5=NC=C4 [AZD6738] (first compound max 1 µM, 7x7, partner max 10 µM) , thanks.
Reply: -0.0433

Task item: Need Bliss excess of Cc1cc2ncnn2cc1Nc1ncc2c(n1)n(C1CCOCC1)c(=O)n2C [AZD7648] + CN(C)CCCOc1ccc(-c2ccc3ncc4c(c3c2)n(C2CCOCC2)c(=O)n4C)cn1 [AZD0156] (first compound max 10 µM, 7x7, partner max 1 µM) , thanks.
Reply: 0.0183

Task item: Need Bliss excess of CC(=O)c1c(C)c2cnc(Nc3ccc(N4CCNCC4)cn3)nc2n(C2CCCC2)c1=O [Palbociclib] + Cc1c2c(nn1C)CSCc1cc(n(C)n1)CSc1cc(c3ccccc3c1)OCCCc1c(C(=O)O)n(C)c3c-2c(Cl)ccc13 [AZD5991] (first compound max 10 µM, 7x7, partner max 1 µM) , thanks.
Reply: -0.021

Task item: Need Bliss excess of CN(CCO)CC[C@H](CSc1ccccc1)Nc1ccc(S(=O)(=O)NC(=O)c2ccc(N3CCC([C@@H](O)c4ccccc4-c4ccc(Cl)cc4)CC3)cc2)cc1S(=O)(=O)C(F)(F)F [AZD4320] + C=CCn1c(=O)c2cnc(Nc3ccc(N4CCN(C)CC4)cc3)nc2n1-c1cccc(C(C)(C)O)n1 [AZD1775] (first compound max 1 µM, partner max 1 µM) , thanks.
Reply: -0.0381

Task item: Need Bliss excess of CN(CCO)CC[C@H](CSc1ccccc1)Nc1ccc(S(=O)(=O)NC(=O)c2ccc(N3CCC([C@@H](O)c4ccccc4-c4ccc(Cl)cc4)CC3)cc2)cc1S(=O)(=O)C(F)(F)F [AZD4320] + C[C@@H](Nc1cc(F)cc(F)c1)c1cc(C(=O)N(C)C)cc2c(=O)cc(N3CCOCC3)oc12 [AZD8186] (first compound max 1 µM, 7x7, partner max 3 µM) , thanks.
Reply: 0.0055

----------
- System: J82 (Bladder Carcinoma)
- assay_name: combination Emax (second highest fraction inhibited in the dose matrix, 72 h); higher = more inhibition; extreme values may be limits of the assay
assay_metric: combination Emax
Just the number, please.

Task item: Need combination Emax of Cc1cc2ncnn2cc1Nc1ncc2c(n1)n(C1CCOCC1)c(=O)n2C [AZD7648] + CCN(CCO)CCCOc1ccc2c(Nc3cc(CC(=O)Nc4cccc(F)c4)[nH]n3)ncnc2c1 [AZD2811] (first compound max 10 µM, 7x7, partner max 1 µM) , thanks.
Reply: 0.126

Task item: Need combination Emax of CN(CCO)CC[C@H](CSc1ccccc1)Nc1ccc(S(=O)(=O)NC(=O)c2ccc(N3CCC([C@@H](O)c4ccccc4-c4ccc(Cl)cc4)CC3)cc2)cc1S(=O)(=O)C(F)(F)F [AZD4320] + C=CCn1c(=O)c2cnc(Nc3ccc(N4CCN(C)CC4)cc3)nc2n1-c1cccc(C(C)(C)O)n1 [AZD1775] (first compound max 1 µM, partner max 1 µM) , thanks.
Reply: 0.117

Task item: Need combination Emax of COc1nnc2ccc(N3CCC(c4ccc(OCCN5CCN(C)C(=O)[C@H]5C)cc4)CC3)nn12 [AZD5153] + CN(CC[C@H](CSC1=CC=CC=C1)NC2=C(C=C(C=C2)S(=O)(=O)NC(=O)C3=CC=C(C=C3)N4CCC(CC4)[C@H](C5=CC=CC=C5C6=CC=C(C=C6)Cl)O)S(=O)(=O)C(F)(F)F)CCO [AZD4320] (first compound max 1 µM, 7x7, partner max 1 µM) , thanks.
Reply: 0.397

Task item: Need combination Emax of COc1nnc2ccc(N3CCC(c4ccc(OCCN5CCN(C)C(=O)[C@H]5C)cc4)CC3)nn12 [AZD5153] + Cc1c2c(nn1C)CSCc1cc(n(C)n1)CSc1cc(c3ccccc3c1)OCCCc1c(C(=O)O)n(C)c3c-2c(Cl)ccc13 [AZD5991] (first compound max 1 µM, 7x7, partner max 1 µM) , thanks.
Reply: 0.791

Task item: Need combination Emax of C[C@@H](c1ccc2nccn2c1)n1nnc2ncc(-c3cnn(C)c3)nc21 [Savolitinib] + CN(CC[C@H](CSC1=CC=CC=C1)NC2=C(C=C(C=C2)S(=O)(=O)NC(=O)C3=CC=C(C=C3)N4CCC(CC4)[C@H](C5=CC=CC=C5C6=CC=C(C=C6)Cl)O)S(=O)(=O)C(F)(F)F)CCO [AZD4320] (first compound max 1 µM, 7x7, partner max 1 µM) , thanks.
Reply: 0.604

Task item: Need combination Emax of CCN(CCO)CCCOc1ccc2c(Nc3cc(CC(=O)Nc4cccc(F)c4)[nH]n3)ncnc2c1 [AZD2811] + C=CCn1c(=O)c2cnc(Nc3ccc(N4CCN(C)CC4)cc3)nc2n1-c1cccc(C(C)(C)O)n1 [AZD1775] (first compound max 1 µM, partner max 1 µM) , thanks.
Reply: 0.315

----------
- Test system: NALM-6 (B-Lymphoblastic Leukemia)
- assay_name: combination Emax (second highest fraction inhibited in the dose matrix, 72 h); higher = more inhibition; extreme values may be limits of the assay
I'd be grateful if you could share measured combination Emax for these entries.
Just the number, please.

Task item: Need combination Emax of CN(CCO)CC[C@H](CSc1ccccc1)Nc1ccc(S(=O)(=O)NC(=O)c2ccc(N3CCC([C@@H](O)c4ccccc4-c4ccc(Cl)cc4)CC3)cc2)cc1S(=O)(=O)C(F)(F)F [AZD4320] + C=CCn1c(=O)c2cnc(Nc3ccc(N4CCN(C)CC4)cc3)nc2n1-c1cccc(C(C)(C)O)n1 [AZD1775] (first compound max 1 µM, partner max 1 µM) , thanks.
Reply: 1

Task item: Need combination Emax of CN(CCO)CC[C@H](CSc1ccccc1)Nc1ccc(S(=O)(=O)NC(=O)c2ccc(N3CCC([C@@H](O)c4ccccc4-c4ccc(Cl)cc4)CC3)cc2)cc1S(=O)(=O)C(F)(F)F [AZD4320] + Nc1ccn([C@@H]2O[C@H](CO)[C@@H](O)C2(F)F)c(=O)n1 [Gemcitabine] (first compound max 1 µM, 7x7, partner max 0.3 µM) , thanks.
Reply: 1

Task item: Need combination Emax of CN(CCO)CC[C@H](CSc1ccccc1)Nc1ccc(S(=O)(=O)NC(=O)c2ccc(N3CCC([C@@H](O)c4ccccc4-c4ccc(Cl)cc4)CC3)cc2)cc1S(=O)(=O)C(F)(F)F [AZD4320] + CC(=O)O[C@H]1C(=O)[C@@]2(C)[C@H]([C@H](OC(=O)c3ccccc3)[C@]3(O)C[C@H](OC(=O)[C@H](O)[C@@H](NC(=O)c4ccccc4)c4ccccc4)C(C)=C1C3(C)C)[C@]1(OC(C)=O)CO[C@@H]1C[C@@H]2O [Paclitaxel] (first compound max 1 µM, 7x7, partner max 3 µM) , thanks.
Reply: 1
